Each recorded value in this set is attributed to patent US11006626B2.

compounds and their reported viability at 10 µM
System: Human Embryo Kidney (HEK) 293 cells
Test: Hypothermia/rewarming injury of HEK cells, trypan blue viability count
Format: cell-based
Conditions: Homo sapiens, HEK293, 24 h, 10 μM; 24 h at 4° C., 24 h rewarming; read-out: % cells that survived
Answer with a number only, understood to be in %.

Cc1c2c(c(C(C)C)c(O)c1C(C)C)CCC(C)(C(=O)NO)O2 (centres unmarked) | 91.1
Cc1c(C)c2c(c(C)c1O)CCC(C)(C(=O)N[C@H](C)CO)O2 (some centres unmarked) | 91.6
Cc1c2c(c(C(C)C)c(O)c1C(C)C)CCC(C)(C(=O)N1CCNCC1)O2 (centres unmarked) | 90.9
Cc1c(C)c2c(c(C)c1O)CCC(C)(C(=O)N1CCNCC1)O2 (centres unmarked) | 88.9
Cc1c(C)c2c(c(C)c1O)CCC(C)(C(=O)NC(C)C)O2 (centres unmarked) | 87.1
Cc1c(C)c2c(c(C)c1O)CCC(C)(C(=O)N[C@H](CO)c1ccccc1)O2 (some centres unmarked) | 97.5

Look up viability at 10 µM for this compound: Cc1c(C)c2c(c(C)c1O)CCC(C)(C(=O)N1CCC[C@H]1CO)O2 (some centres unmarked)
93

Look up viability at 10 µM for this compound: Cc1c(C)c2c(c(C)c1O)CCC(C)(C(=O)NCCC#N)O2 (centres unmarked)
88.4

Look up viability at 10 µM for this compound: CC(C)=CCC/C(C)=C/CNC(=O)C1(C)CCc2c(C)c(O)c(C)c(C)c2O1 (centres unmarked)
84
